src = ChEMBL document CHEMBL1201862

# Tested on: SK-MEL-28
# testProtocol: NCI tumour cell line growth inhibition, 48 h
Calls of active or inactive are those of the source. Rule as the data show it: active = GI50 up to about 1.1 µM and inactive = higher.
Give one outcome, nothing more. List: active, inactive

compound	classLabel
CC1=C(C(=S)Nc2ccc(Cl)c(C(=O)OC(C)C)c2)SCCO1	inactive
S=C1CSc2c(ccc3ccccc23)N1	inactive
Nc1ccc(S(=O)(=O)Nc2nc3ccccc3nc2N2CCCCC2)cc1	inactive
C[C@]12CCc3nonc3C1CC[C@@H]1C2CC[C@]2(C)NC(=O)CCC12 (stereo partly drawn)	inactive
COc1ccc2c(c1)CN1CCc3c(cc(OC)c(OC)c3OC)C1C2 (stereo not drawn)	inactive

Query: Check the results log: what was the call for O=C(CCc1nnc(S)[nH]1)Nc1cc(Cl)ccc1Cl ?
Response: inactive

Query: How about this compound: O=C1c2cc3c(cc2[C@@H]2NC4CCCC14O2)OCO3 (stereo partly drawn)
Response: inactive
